Reported half-life at 1 µM values are given for each entry in this list.
Assay: Human liver microsome stability test
Type: in vitro ADME
Conditions: human, human liver microsomes
Output spec: scalar in h, unitless text.

# annotated cases, reported half-life at 1 µM shown
In [3]: df
Out[3]:
                                   compound      assay_readout  unit_info  reported_value
0  Cc1nc(N[C@H](C)c2cccc(S(=O)(=O)C(F)(F)F)c2F)c2cn(C3(CF)CC3)c(=O)cc2n1  half-life at 1 µM          h            7.92
1  Cc1nc(N[C@H](C)c2cccc(S(=O)(=O)C(F)F)c2C)c2cn(C3(CF)CC3)c(=O)cc2n1  half-life at 1 µM          h            1.46

Consider the record given below.
Problem: Please look up its half-life at 1 µM: Cc1nc(N[C@H](C)c2cccc(C(F)(F)F)c2C)c2cn(C3(CF)CC3)c(=O)cc2n1 [Control compound I, reference compound]
Result: 1.07

====

Measured IC50 accompanies every entry in the list below.
Tested on: ERK phosphorylation level in DLD-1 cells
Test: Inhibition of ERK phosphorylation level in DLD-1 cells (intracellular western blot)
Assay type: cell-based
Details: Homo sapiens
Reply with just the number (in nM).

Example entries begin here.
                              sample_smiles                            assayed_system  assay_readout  reported_value
0  COCC1(n2cc3c(N[C@H](C)c4cccc(S(F)(F)(F)(F)F)c4)nc(C)nc3cc2=O)CC1  ERK phosphorylation level in DLD-1 cells           IC50             109
1  Cc1nc(N[C@H](C)c2cccc(S(F)(F)(F)(F)F)c2)c2cn(C3(C)CCOCC3)c(=O)cc2n1  ERK phosphorylation level in DLD-1 cells           IC50             141

// next entry
Problem: Consider the compound `CC(=O)N1CCC(C)(n2cc3c(N[C@H](C)c4cccc(S(F)(F)(F)(F)F)c4)nc(C)nc3cc2=O)CC1` and give its measured IC50.
Result: 119

====

Catalogue of IC50 readings, one per entry.
System: ERK phosphorylation level in DLD-1 cells
Assay: Inhibition of ERK phosphorylation level in DLD-1 cells (intracellular western blot)
Type: cell-based
Details: Homo sapiens
State just the number; it will be interpreted in nM.

Check out these entries, answers already filled in.
                                   molecule  unit_info  reported_value
0  Cc1nc(N[C@H](C)c2cccc(S(=O)(=O)C(F)(F)F)c2F)c2cn(C3(CF)CC3)c(=O)cc2n1         nM              58
1  Cc1nc(N[C@H](C)c2cccc(S(F)(F)(F)(F)F)c2)c2cn(C3(C)CCOC3)c(=O)cc2n1 (stereo partly shown)         nM              92
2  Cc1nc(N[C@H](C)c2cccc(S(F)(F)(F)(F)F)c2)c2cn(C3(C(F)F)CC3)c(=O)cc2n1         nM             159
3  Cc1nc(N[C@H](C)c2cccc(OC(F)F)c2F)c2cn(C3(C(F)F)CC3)c(=O)cc2n1         nM             196

Problem: Under ERK phosphorylation level in DLD-1 cells: IC50 value of `Cc1nc(N[C@H](C)c2cccc(S(=O)(=O)C(F)F)c2C)c2cn(C3(CF)CC3)c(=O)cc2n1` ?
Result: 102

Problem: Ok, now CC(=O)N1CCC(C)(n2cc3c(N[C@H](C)c4cccc(S(F)(F)(F)(F)F)c4)nc(C)nc3cc2=O)C1 (stereo partly shown)
Result: 115

Problem: And then `Cc1nc(N[C@H](C)c2cccc(S(F)(F)(F)(F)F)c2)c2cn([C@H]3C[C@H](F)C3)c(=O)cc2n1` , what is it?
Result: 131

====

As shown below, each of these compounds has a reported Cmax value.
Experiment: Pharmacokinetic test in mice
Format: in vivo
Settings: mouse, plasma; male ICR mice, oral gavage, 10 mg/kg
Param answer (str): number followed by unit.

Below are worked cases with known answers.
>>> print(df.to_string())
                                   compound  reported_value
0  Cc1nc(N[C@H](C)c2cccc(S(F)(F)(F)(F)F)c2)c2cn(C3(C(F)F)CC3)c(=O)cc2n1      4240 ng/mL
1  Cc1nc(N[C@H](C)c2cccc(S(=O)(=O)C(F)(F)F)c2F)c2cn(C3(CF)CC3)c(=O)cc2n1       256 ng/mL
2  Cc1nc(N[C@H](C)c2cccc(C(F)(F)F)c2C)c2cn(C3(CF)CC3)c(=O)cc2n1 [Control compound I, reference compound]       176 ng/mL

Problem: Which Cmax value is on record for Cc1nc(N[C@H](C)c2cccc(C(F)F)c2F)c2cn(C3(C(F)F)CC3)c(=O)cc2n1 [Control compound II, reference compound] ?
Result: 669 ng/mL

====

The entries below are paired with their reported IC50.
Target: KRAS G12C-SOS1 (Homo sapiens (Human))
Sequence (Q07889 whole entry, stated change not applied): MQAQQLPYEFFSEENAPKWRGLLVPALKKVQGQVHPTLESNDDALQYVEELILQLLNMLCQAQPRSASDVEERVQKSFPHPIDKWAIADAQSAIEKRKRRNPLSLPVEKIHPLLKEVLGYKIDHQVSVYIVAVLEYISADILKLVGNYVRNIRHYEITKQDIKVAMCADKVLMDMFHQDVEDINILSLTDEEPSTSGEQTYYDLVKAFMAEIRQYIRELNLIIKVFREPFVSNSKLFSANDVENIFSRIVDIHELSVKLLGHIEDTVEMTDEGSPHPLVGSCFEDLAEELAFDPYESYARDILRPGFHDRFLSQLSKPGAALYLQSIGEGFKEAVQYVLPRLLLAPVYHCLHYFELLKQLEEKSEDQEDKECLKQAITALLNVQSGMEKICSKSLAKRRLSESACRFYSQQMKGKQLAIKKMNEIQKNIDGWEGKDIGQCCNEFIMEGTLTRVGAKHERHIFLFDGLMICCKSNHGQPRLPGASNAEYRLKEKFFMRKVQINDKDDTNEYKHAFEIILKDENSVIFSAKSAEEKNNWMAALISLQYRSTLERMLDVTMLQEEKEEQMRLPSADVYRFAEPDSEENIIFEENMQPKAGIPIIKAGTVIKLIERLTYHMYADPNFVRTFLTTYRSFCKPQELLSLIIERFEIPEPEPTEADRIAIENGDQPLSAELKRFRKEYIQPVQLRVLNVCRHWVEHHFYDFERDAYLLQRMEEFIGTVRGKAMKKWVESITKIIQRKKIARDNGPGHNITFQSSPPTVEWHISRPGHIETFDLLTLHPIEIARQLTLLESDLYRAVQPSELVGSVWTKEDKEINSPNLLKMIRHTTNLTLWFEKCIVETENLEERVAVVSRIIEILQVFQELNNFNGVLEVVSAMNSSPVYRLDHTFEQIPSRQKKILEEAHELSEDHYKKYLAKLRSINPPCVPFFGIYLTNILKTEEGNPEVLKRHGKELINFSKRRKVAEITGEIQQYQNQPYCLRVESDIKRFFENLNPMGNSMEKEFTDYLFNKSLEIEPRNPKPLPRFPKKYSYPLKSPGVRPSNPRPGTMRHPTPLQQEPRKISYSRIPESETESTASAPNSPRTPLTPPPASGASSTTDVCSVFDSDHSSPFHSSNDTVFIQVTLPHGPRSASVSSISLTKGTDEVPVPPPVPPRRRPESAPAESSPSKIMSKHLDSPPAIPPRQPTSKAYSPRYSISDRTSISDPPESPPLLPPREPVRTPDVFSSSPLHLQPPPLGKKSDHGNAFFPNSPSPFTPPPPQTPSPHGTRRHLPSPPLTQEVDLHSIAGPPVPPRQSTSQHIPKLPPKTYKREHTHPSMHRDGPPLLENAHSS
Assay: Inhibition test of compounds on KRAS G12C::SOS1 binding
Conditions: GST-KRAS G12C, His-SOS1
State just the number; it will be interpreted in nM.

Reference set (2 entries):
>>> print(df.to_string())
                              sample_smiles  unit_info  reported_value
0  Cc1nc(N[C@H](C)c2cccc(S(=O)(=O)C(F)(F)F)c2F)c2cn(C3(CF)CC3)c(=O)cc2n1         nM            7.73
1  Cc1nc(N[C@H](C)c2cccc(S(F)(F)(F)(F)F)c2)c2cn(C3(C)CC3)c(=O)cc2n1         nM            21.7

Here's the next entry for you.
Problem: # input molecule: `Cc1nc(N[C@H](C)c2cccc(OC(F)F)c2F)c2cn(C3(C(F)F)CC3)c(=O)cc2n1` ; wanted: its IC50
Result: 22.2

====

Experiment: Plasma protein binding by equilibrium dialysis, mouse plasma
Format: in vitro ADME
Conditions: 37° C., read-out: Free fraction in plasma, Mouse (%)
assay-readout: fraction unbound at 5 h, 1 µM
Provide a numeric answer; units are not to be included.

Consider the following illustrative entries.
>>> df
                                   compound                  assay_readout  reported_value
0  Cc1nc(N[C@H](C)c2cccc(S(=O)(=O)C(F)(F)F)c2F)c2cn(C3(CF)CC3)c(=O)cc2n1  fraction unbound at 5 h, 1 µM           0.028
1  Cc1nc(N[C@H](C)c2cccc(C(F)(F)F)c2C)c2cn(C3(CF)CC3)c(=O)cc2n1 [Control compound I, reference compound]  fraction unbound at 5 h, 1 µM           0.005
2  Cc1nc(N[C@H](C)c2cccc(S(=O)(=O)C(F)F)c2F)c2cn(C3(CF)CC3)c(=O)cc2n1  fraction unbound at 5 h, 1 µM           0.114

Continue with the next compound.
Problem: Which fraction unbound at 5 h, 1 µM value is on record for `Cc1nc(N[C@H](C)c2cccc(S(=O)(=O)C(F)F)c2C)c2cn(C3(CF)CC3)c(=O)cc2n1` ?
Result: 0.054

====

Assay: Pharmacokinetic test in mice
Assay type: in vivo
Conditions: mouse, plasma; male ICR mice, oral gavage, 10 mg/kg
assay-readout: Tmax

Known Tmax results, listed for orientation:
In [3]: df
Out[3]:
                                   compound  assay_readout  reported_value
0  Cc1nc(N[C@H](C)c2cccc(S(F)(F)(F)(F)F)c2)c2cn(C3(C(F)F)CC3)c(=O)cc2n1           Tmax         120 min
1  Cc1nc(N[C@H](C)c2cccc(C(F)(F)F)c2C)c2cn(C3(CF)CC3)c(=O)cc2n1 [Control compound I, reference compound]           Tmax          15 min
2  Cc1nc(N[C@H](C)c2cccc(C(F)F)c2F)c2cn(C3(C(F)F)CC3)c(=O)cc2n1 [Control compound II, reference compound]           Tmax          30 min

Next, consider the following compound.
Problem: Would you mind telling me what Tmax value was observed for `Cc1nc(N[C@H](C)c2cccc(S(=O)(=O)C(F)(F)F)c2F)c2cn(C3(CF)CC3)c(=O)cc2n1` ?
Result: 30 min

====

Listed below: half-life values for each entry.
Experiment: Pharmacokinetic test in mice
Format: in vivo
Conditions: mouse, plasma; male ICR mice, oral gavage, 10 mg/kg
Kindly provide the numeric value in h only, without the unit symbol.

In [3]: df
Out[3]:
                                   compound  unit_info  reported_value
0  Cc1nc(N[C@H](C)c2cccc(S(=O)(=O)C(F)(F)F)c2F)c2cn(C3(CF)CC3)c(=O)cc2n1          h            0.99
1  Cc1nc(N[C@H](C)c2cccc(S(F)(F)(F)(F)F)c2)c2cn(C3(C(F)F)CC3)c(=O)cc2n1          h            2.33
2  Cc1nc(N[C@H](C)c2cccc(C(F)(F)F)c2C)c2cn(C3(CF)CC3)c(=O)cc2n1 [Control compound I, reference compound]          h            1.35

From here, focus on the item given below.
Problem: What does the data say about its half-life? Entry: Cc1nc(N[C@H](C)c2cccc(C(F)F)c2F)c2cn(C3(C(F)F)CC3)c(=O)cc2n1 [Control compound II, reference compound]
Result: 0.96

Origin of values: patent US20240166645A1
